experimental.system: T1, biotinylated goat anti-human kappa light chain
T1 construct: Positive control of the ELISA
method.summary: ELISA; positive control; also: test concentration or dose not given here
test.readout: optical density (OD)
Expressed in OD, but write only the number.

Worked cases, optical density given:
376_C06 (antibody, V domains shown, VH/VL only) VH: EVQLLESGGGLVQPGGSLRLSCAASGFTFSSYGMNWVRQAPGKGLEWVAGINYNGGYTSYADSVKGRFTISRDNSKNTLYLQMNSLRAEDTAVYYCARSATWHDTALDYWGQGTLVTVSS VL: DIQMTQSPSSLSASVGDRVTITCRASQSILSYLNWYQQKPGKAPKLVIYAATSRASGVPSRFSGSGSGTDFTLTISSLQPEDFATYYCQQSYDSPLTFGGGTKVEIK ... 3.43
370_G12 (antibody, V domains shown, VH/VL only) VH: EVQLLESGGGLVQPGGSLRLSCAASGFTFSSYSMNWVRQAPGKGLEWVAGINYNGGYKGYADSVKGRFTISRDNSKNTLYLQMNSLRAEDTAVYYCARSATWHDTALDYWGQGTLVTVSS VL: DIQMTQSPSSLSASVGDRVTITCRASQSIITYLNWYQQKPGKAPKLLIYAATSLASGVPSRFSGSGSGTDFTLTISSLQPEDFATYYCQQSDESPLTFGGGTKVEIK ... 3.52
376_E08 (antibody, V domains shown, VH/VL only) VH: EVQLLESGGGLVQPGGSLRLSCAASGFTFSDYGMNWVRQAPGKGLEWVAGINYNGGYTSYADSVKGRFTISRDNSKNTLYLQMNSLRAEDTAVYYCARSANWHDTALDYWGQGTLVTVSS VL: DIQMTQSPSSLSASVGDRVTITCRASQSIVSYVNWYQQKPGKAPKLVIYAATSRASGVPSRFSGSGSGTDFTLTISSLQPEDFATYYCQQSYDSPLTFGGGTKVEIK ... 3.47
365_C07 (antibody, V domains shown, VH/VL only) VH: EVQLLESGGGLVQPGGSLRLSCAASGFTFSDYGMNWVRQAPGKGLEWVASINYNGGYTSYADSVKGRFTISRDNSKNTLYLQMNSLRAEDTAVYYCARSATWHDTALDYWGQGTLVTVSS VL: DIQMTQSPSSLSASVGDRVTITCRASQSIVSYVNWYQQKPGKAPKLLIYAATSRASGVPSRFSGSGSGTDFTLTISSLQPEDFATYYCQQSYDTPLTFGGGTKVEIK ... 3.17
367_H07 (antibody, V domains shown, VH/VL only) VH: EVQLLESGGGLVQPGGSLRLSCAASGFTFSSYSMNWVRQAPGKGLEWVANINYNGGYTGYADSVKGRFTISRDNSKNTLYLQMNSLRAEDTAVYYCARSATWHDTALDYWGQGTLVTVSS VL: DIQMTQSPSSLSASVGDRVTITCRASQSILSYVNWYQQKPGKAPKLVIYATTSRASGVPSRFSGSGSGTDFTLTISSLQPEDFATYYCQQSYENPLTFGGGTKVEIK ... 3.46
373_H06 (antibody, V domains shown, VH/VL only) VH: EVQLLESGGGLVQPGGSLRLSCAASGFTFSSYGMHWVRQAPGKGLEWVAGINYNGGYTSYADSVKGRFTISRDNSKNTLYLQMNSLRAEDTAVYYCARSATWHDTHLDYWGQGTLVTVSS VL: DIQMTQSPSSLSASVGDRVTITCRASQSIISYVNWYQQKPGKAPKLLIYAATSLASGVPSRFSGSGSGTDFTLTISSLQPEDFATYYCQQSYDLPLTFGGGTKVEIK ... 3.3

Input: Entry under review: 375_G07 (antibody, V domains shown, VH/VL only) VH: EVQLLESGGGLVQPGGSLRLSCAASGFTFDSYSMNWVRQAPGKGLEWVAGINYNSGYTSYADSVKGRFTISRDNSKNTLYLQMNSLRAEDTAVYYCARSATWHDTHLDYWGQGTLVTVSS VL: DIQMTQSPSSLSASVGDRVTITCRASQSILSYLNWYQQKPGKAPKLVIYAATSLASGVPSRFSGSGSGTDFTLTISSLQPEDFATYYCQQSYDLPLTFGGGTKVEIK . Reported optical density?
Output: 3.2

Input: Entry under review: 368_G09 (antibody, V domains shown, VH/VL only) VH: EVQLLESGGGLVQPGGSLRLSCAASGFTFDSYGMHWVRQAPGKGLEWVANINYNGGYTSYADSVKGRFTISRDNSKNTLYLQMNSLRAEDTAVYYCARSATWHDTHLDYWGQGTLVTVSS VL: DIQMTQSPSSLSASVGDRVTITCRASQSIVSYLNWYQQKPGKAPKLVIYAATSRASGVPSRFSGSGSGTDFTLTISSLQPEDFATYYCQQSYDTPLTFGGGTKVEIK . Reported optical density?
Output: 3.62

Input: Entry under review: 376_B05 (antibody, V domains shown, VH/VL only) VH: EVQLLESGGGLVQPGGSLRLSCAASGFTFSSYSMNWVRQAPGKGLEWVANINYNGGYTGYADSVKGRFTISRDNSKNTLYLQMNSLRAEDTAVYYCARSANWHDTALDYWGQGTLVTVSS VL: DIQMTQSPSSLSASVGDRVTITCRASQSIISYVNWYQQKPGKAPKLLIYAATSRASGVPSRFSGSGSGTDFTLTISSLQPEDFATYYCQQSYELPLTFGGGTKVEIK . Reported optical density?
Output: 3.52

Input: Entry under review: 372_F07 (antibody, V domains shown, VH/VL only) VH: EVQLLESGGGLVQPGGSLRLSCAASGFTFDDYSMNWVRQAPGKGLEWVAGINYNSGYKGYADSVKGRFTISRDNSKNTLYLQMNSLRAEDTAVYYCARSATWHDTHLDYWGQGTLVTVSS VL: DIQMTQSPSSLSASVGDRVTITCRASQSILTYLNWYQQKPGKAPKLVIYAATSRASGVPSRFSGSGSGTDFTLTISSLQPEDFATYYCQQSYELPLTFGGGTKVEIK . Reported optical density?
Output: 3.4
